- system: Glucose transporter (Leishmania mexicana)
- procedure summary: ST_JUDE_LEISH: Cytotoxicity at 2uM final concentration against transgenic Leishmania Mexicana promastigotes LmGT2 that are glucose transport deficient and complemented with the L. Mexicana glucose transporter 2. Activity is measured by DNA content using SYBR green in vitro
- Format: functional
measured quantity: inhibition (%)
The figure you give is taken to be in %; do not add the unit.

Reported inhibition, compound `Cc1cc(NCCc2ccccc2)nc(NC(=N)Nc2cccc(F)c2)n1` : ____
-0.09

Can you share its inhibition? I mean this compound: `CC(C)CCCC(C)(C)NC[C@@H](O)[C@H](Cc1ccccc1)NC(=O)c1cccc(CCC2CC2)c1`
4.06

Please report the recorded inhibition for `COc1cc2ccccc2cc1CNCCCCCCNCc1cc2ccccc2cc1OC` .
5.15

Endpoint output: inhibition of `COc1ccccc1NC(=O)Nc1cccc(-c2ccc(-c3nc4cccc(C)c4[nH]3)s2)c1` . Value?
3.94

Data request, read-out inhibition, for `NCCc1cccc(-c2cnc3[nH]cc(-c4ccc(C(=O)O)cc4)c3c2)c1`
0.03

Returns the measured inhibition for the input compound. Input: CCCCCCNC(=O)C1Cc2c([nH]c3ccccc23)C2(CCN(CCc3ccccc3)CC2)N1 (centres undefined)
0.55

Look at this compound and give its reported inhibition. `O=C(Nc1cccc(-c2ccc(CN3CCCC3)cc2)c1)c1cccc(Cl)c1`
0.25

Which inhibition value is on record for `O=C(NCCCCN1CCC(c2ccc3c(c2OCC2CC2)CCCC3)CC1)c1ccc(NC(=O)c2ccc(Cl)cc2)cc1` ?
8.96

Any idea what its inhibition is? The compound is `O=S(=O)(Nc1ccc2nccc(N3CCNCC3)c2c1)c1ccc2c(Cl)cccc2c1`
-0.37
